# System: Vero
# assay summary: Cytotoxicity against African green monkey Vero cells assessed as reduction in cell viability by MTT assay
# Format: cell-based
# experimental setup: Chlorocebus sabaeus
measurement type: IC50

Known IC50 results, listed for orientation:
# smi, IC50
measured = [
    ("Cc1nc(OCc2cn(CCCNc3ccnc4cc(Cl)ccc34)nn2)nc(-c2ccc([N+](=O)[O-])cc2)c1C(=O)OC(C)C", "15.2 µM"),
    ("Cc1nc(OCc2cn(CCCNc3ccnc4cc(Cl)ccc34)nn2)nc(-c2ccccc2)c1C(=O)OC(C)C", "28.5 µM"),
    ("Cc1nc(OCc2cn(CCNc3ccnc4cc(Cl)ccc34)nn2)nc(-c2ccccc2)c1C(=O)OC(C)C", "149 µM"),
]

Read the next record carefully.
Request: For Cc1nc(OCc2cn(CCNc3ccnc4cc(Cl)ccc34)nn2)nc(-c2ccc([N+](=O)[O-])cc2)c1C(=O)OC(C)C , what is its reported IC50?
Result: 150 µM

----------
# Test system: Vero
# assay summary: Cytotoxicity against African green monkey Vero cells assessed as reduction in cell viability by MTT assay
# Type: cell-based
# experimental setup: Chlorocebus sabaeus
The reader will find reported IC50 values listed item by item below.

These recorded examples may help you get a feel for the data.
# smi, IC50
records = [
    ("CCOC(=O)c1c(C)nc(OCc2cn(CCNc3ccnc4cc(Cl)ccc34)nn2)nc1C", "> 207 µM"),
    ("COC(=O)c1c(C)nc(OCc2cn(CCCNc3ccnc4cc(Cl)ccc34)nn2)nc1-c1ccccc1", "156 µM"),
    ("CCOC(=O)c1c(C)nc(OCc2cn(CCCNc3ccnc4cc(Cl)ccc34)nn2)nc1C", "> 201 µM"),
]

Request: Fill in the blank: the reported IC50 of CC[C@H]1CN2CCc3cc(OC)c(OC)cc3[C@@H]2C[C@@H]1C[C@H]1NCCc2cc(OC)c(OC)cc21 is ____.
Result: 0.176 µM

Request: And for Cc1nc(OCc2cn(CCCNc3ccnc4cc(Cl)ccc34)nn2)nc(-c2ccccc2[N+](=O)[O-])c1C(=O)OC(C)C ?
Result: 23.4 µM

Request: Continue with CCOC(=O)c1c(C)nc(OCc2cn(CCCNc3ccnc4cc(Cl)ccc34)nn2)nc1-c1ccccc1
Result: 153 µM

Request: Subsequent entry: Cc1nc(OCc2cn(CCNc3ccnc4cc(Cl)ccc34)nn2)nc(-c2ccccc2[N+](=O)[O-])c1C(=O)OC(C)C
Result: 145 µM

Request: How about this compound: CCOC(=O)c1c(C)nc(OCc2cn(CCNc3ccnc4cc(Cl)ccc34)nn2)nc1-c1ccccc1
Result: 149 µM

----------
# assay summary: in vitro
# experimental setup: monkey, Vero cells
# Description: Selectivity index, ratio of IC50 for African green monkey Vero cells to IC50 for chloroquine-sensitive Plasmodium falciparum NF54
1 means recorded selectivity ratio is 300 or above; 0 means it is below 300.

Worked cases, answers included:
# smi, label class
measured = [
    ("CCOC(=O)c1c(C)nc(OCc2cn(CCCNc3ccnc4cc(Cl)ccc34)nn2)nc1-c1ccccc1", 0),
    ("Cc1nc(OCc2cn(CCNc3ccnc4cc(Cl)ccc34)nn2)nc(-c2ccc([N+](=O)[O-])cc2)c1C(=O)OC(C)C", 1),
    ("CCOC(=O)c1c(C)nc(OCc2cn(CCNc3ccnc4cc(Cl)ccc34)nn2)nc1-c1ccccc1", 0),
    ("Cc1nc(OCc2cn(CCCNc3ccnc4cc(Cl)ccc34)nn2)nc(-c2ccccc2[N+](=O)[O-])c1C(=O)OC(C)C", 0),
    ("COC(=O)c1c(C)nc(OCc2cn(CCCNc3ccnc4cc(Cl)ccc34)nn2)nc1-c1ccccc1", 0),
    ("Cc1nc(OCc2cn(CCCNc3ccnc4cc(Cl)ccc34)nn2)nc(-c2ccc([N+](=O)[O-])cc2)c1C(=O)OC(C)C", 1),
    ("Cc1nc(OCc2cn(CCCNc3ccnc4cc(Cl)ccc34)nn2)nc(-c2ccccc2)c1C(=O)OC(C)C", 0),
    ("Cc1nc(OCc2cn(CCNc3ccnc4cc(Cl)ccc34)nn2)nc(-c2ccccc2)c1C(=O)OC(C)C", 0),
]

Request: Has Cc1nc(OCc2cn(CCNc3ccnc4cc(Cl)ccc34)nn2)nc(-c2ccccc2[N+](=O)[O-])c1C(=O)OC(C)C a recorded selectivity ratio greater than or equal to 300?
Result: 0
